assay: in vitro; format: cell-based; conditions: 3-days incubation (unmarked values); HepG2 or HepG2.117 cells, ATPlite; mean value
PROPERTY MEASURED: CC50 at 3 days

Query block: Look up and state reported CC50 at 3 days for `CNC(=O)c1ccc(-n2c(NC(C)C)nc3c(c2=O)C[C@@H](C)N(C(=O)c2ccc(Cl)c(Cl)c2)C3)cn1`
Result block: > 50 µM

====

Below, each entry is listed with its recorded CC50.
system: HepG2 cells; test: in vitro; format: cell-based; conditions: 3-days incubation (unmarked values); HepG2 or HepG2.117 cells, ATPlite; mean value; read-out: CC50 (μM, mean value)
Write down the numeric answer in µM and omit the unit.

COMPOUND	MEASUREMENT UNIT	READOUT VALUE
CNC(=O)c1ccc(-n2c(NC(C)C)nc3c(c2=O)C[C@@H](C)N(C(=O)c2ccc(Cl)c(Cl)c2)C3)c(C(F)(F)F)c1 (single isomer, unassigned) [Compound C340b]	µM	29.8

Lab note: next compound to report on.
Query block: Please respond with reported CC50 (system HepG2 cells) for CNC(=O)c1ccc(-n2c(NC(C)C)nc3c(c2=O)C[C@@H](C)N(C(=O)c2ccc(Cl)c(Cl)c2)C3)c(Cl)c1 (single isomer, unassigned) [Compound C293a] .
Result block: 33.4
